# System: mice
# Measurement Description: Acute Toxicity (lethal dose LD0)
# Format: in vivo
# Assay Setup: intraperitoneal
Where a name gives a salt, the structure may show the parent alone.
Outcome Measure: DL0 I.P. (maximum dose which did not cause any mortality after 8 days) (mg/kg)
A number alone suffices; assume mg/kg.

Examples with their reported DL0 I.P. (maximum dose which did not cause any mortality after 8 days) follow.
                                   molecule  measurement_units  data_value
0  C[C@H](O)[C@@]1(O)CC[C@H]2[C@@H]3CC[C@H]4C[C@H](N)CC[C@]4(C)[C@H]3CC[C@@]21C [Example 3, hydrochloride]              mg/kg          60
1  CC(=O)[C@@]1(O)CC[C@H]2[C@@H]3CC[C@H]4C[C@H](N)CC[C@]4(C)[C@H]3CC[C@@]21C [Example 6, hydrochloride]              mg/kg          60
2  C/C=C1/CC[C@H]2[C@@H]3CC[C@H]4C[C@H](N)CC[C@]4(C)[C@H]3CC[C@]12C [Example 1, hydrochloride]              mg/kg         100

Attention now shifts to the item below.
[ask] Given C[C@H](O)[C@H]1CC[C@H]2[C@@H]3CC[C@H]4C[C@@H](N)CC[C@@H]4[C@H]3CC[C@]12C [Example 5, hydrochloride] , state its recorded DL0 I.P. (maximum dose which did not cause any mortality after 8 days).
[reply] 100
